Measured values drawn from patent US8293734B2 for this set.

outcomeMeasure: melting point

// worked examples, melting point included
> print(dat)
                                   compound  outcomemeasure  measuredresult
1  COc1ccc(-c2ccc(OCC3(C)Cn4cc([N+](=O)[O-])nc4O3)cc2)cn1 (stereo not drawn)   melting point   217 to 219 °C
2  CC1(COc2cnc(-c3ccc(F)cc3)nc2)Cn2cc([N+](=O)[O-])nc2O1 (stereo not drawn)   melting point   201 to 203 °C
3  O=[N+]([O-])c1cn2c(n1)OCC(COCc1cccc(OC(F)(F)F)c1)C2 (stereo not drawn)   melting point     60 to 61 °C

Which melting point reading was recorded for the compound CC1(COc2ccc(OCc3ccccc3)cc2)CCn2cc([N+](=O)[O-])nc2O1 (stereo not drawn) ?
174 to 176 °C

Which melting point reading was recorded for the compound CC1(COc2ncc(-c3ccc(F)cc3)cn2)Cn2cc([N+](=O)[O-])nc2O1 (stereo not drawn) ?
196 °C (dec.)

Which melting point reading was recorded for the compound CC1(COc2ccc(-c3ccc(F)cc3)cc2)Cn2cc([N+](=O)[O-])nc2O1 (stereo not drawn) ?
180 to 181 °C

Which melting point reading was recorded for the compound O=[N+]([O-])c1cn2c(n1)OC(COc1ccc(-c3ccc(OC(F)(F)F)cc3)cc1)C2 (stereo not drawn) ?
200 to 201 °C

Which melting point reading was recorded for the compound O=[N+]([O-])c1cn2c(n1)OC(COc1ccc(OCc3ccccc3)cc1)C2 (stereo not drawn) ?
208 to 210 °C

Which melting point reading was recorded for the compound O=[N+]([O-])c1cn2c(n1)OCC(COc1ccc(-c3ccc(F)cc3)cn1)C2 (stereo not drawn) ?
160 to 161 °C
